- target-of-assay: TRIM25 CC-PRY/SPRY (UniProt Q14258 189-630)
- Sequence (Q14258 189-630): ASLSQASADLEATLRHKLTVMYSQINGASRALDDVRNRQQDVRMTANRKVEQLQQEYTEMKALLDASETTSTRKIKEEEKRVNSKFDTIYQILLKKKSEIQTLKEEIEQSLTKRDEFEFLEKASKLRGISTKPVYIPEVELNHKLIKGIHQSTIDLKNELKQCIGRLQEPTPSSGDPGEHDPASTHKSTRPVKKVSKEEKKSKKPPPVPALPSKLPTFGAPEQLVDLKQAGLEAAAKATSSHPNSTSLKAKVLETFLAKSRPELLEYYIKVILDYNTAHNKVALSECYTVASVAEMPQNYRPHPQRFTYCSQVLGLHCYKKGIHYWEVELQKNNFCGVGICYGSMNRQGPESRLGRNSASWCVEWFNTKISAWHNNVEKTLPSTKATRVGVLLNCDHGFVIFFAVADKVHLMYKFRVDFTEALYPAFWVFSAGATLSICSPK
- assay-comment: ITC; ITC and filter binding: 20 mM MES pH 6.5, 75 mM NaCl, 0.5 mM TCEP (ITC 20 C, filter binding on ice); NMR: 20 mM Na phosphate pH 6.5, 150 mM NaCl, 2 mM TCEP, 293 K
- measurement-conditions: protein: recombinant; tags: His-Trx (removed); chain copies: 2; single strand
quantity-name: pKd
pKd is a log-scale quantity: -log10 of the concentration expressed in molar.

Asked: Complete the entry with pKd for UAAAAGGAGAU (ssRNA) [pre-let-7 loop]
Given back: 5.39
